- Tgt: T1, human IL-25 expressed with a C-terminal myc-myc-hexahistidine tag (human)
- T1 construct: also called human IL-25-MMH; hIL-25-MMH
- T1 chain: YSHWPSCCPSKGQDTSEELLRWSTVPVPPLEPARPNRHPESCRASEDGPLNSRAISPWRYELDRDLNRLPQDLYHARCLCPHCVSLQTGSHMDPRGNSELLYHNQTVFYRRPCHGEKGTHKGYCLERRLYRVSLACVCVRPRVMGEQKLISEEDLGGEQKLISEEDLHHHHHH
- Measurement Notes: SPR Biacore, captured mAb, 25°C;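 further: biacore 4000 SPR with IL-25-MMH as analyte over purified anti-IL-25 antibodies, association and dissociation rates derived from fitting sensorgrams to a 1:1 binding model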
Property Label: pKd
Just the number, please; pKd means minus log10 of the concentration in mol/L.

H4H10901P (antibody, human IgG4, V domains shown) VH: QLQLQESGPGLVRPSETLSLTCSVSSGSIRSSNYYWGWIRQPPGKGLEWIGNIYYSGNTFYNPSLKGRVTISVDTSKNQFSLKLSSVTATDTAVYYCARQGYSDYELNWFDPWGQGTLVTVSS VL: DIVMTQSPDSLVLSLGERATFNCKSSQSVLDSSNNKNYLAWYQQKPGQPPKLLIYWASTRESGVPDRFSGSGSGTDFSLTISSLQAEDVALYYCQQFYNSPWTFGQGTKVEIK = 10.60
H4H10861P (antibody, human IgG4, V domains shown) VH: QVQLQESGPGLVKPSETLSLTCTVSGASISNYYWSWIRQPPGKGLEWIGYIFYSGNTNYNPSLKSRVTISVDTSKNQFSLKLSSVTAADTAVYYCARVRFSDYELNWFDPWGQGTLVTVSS VL: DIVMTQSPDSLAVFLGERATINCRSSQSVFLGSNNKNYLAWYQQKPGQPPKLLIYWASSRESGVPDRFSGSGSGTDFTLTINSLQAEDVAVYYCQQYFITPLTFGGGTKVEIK = 10.94
H4H10876P (antibody, human IgG4, V domains shown) VH: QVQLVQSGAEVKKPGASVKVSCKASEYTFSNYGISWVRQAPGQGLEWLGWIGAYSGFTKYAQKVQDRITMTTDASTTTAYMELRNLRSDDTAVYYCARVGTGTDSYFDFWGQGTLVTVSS VL: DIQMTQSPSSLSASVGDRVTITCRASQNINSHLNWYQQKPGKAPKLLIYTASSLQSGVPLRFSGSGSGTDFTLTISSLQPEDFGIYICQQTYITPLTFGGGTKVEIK = 9.91
H4H10905P (antibody, human IgG4, V domains shown) VH: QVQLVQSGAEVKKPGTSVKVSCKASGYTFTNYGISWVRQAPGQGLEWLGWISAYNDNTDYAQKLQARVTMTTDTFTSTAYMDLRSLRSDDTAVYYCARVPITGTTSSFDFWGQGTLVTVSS VL: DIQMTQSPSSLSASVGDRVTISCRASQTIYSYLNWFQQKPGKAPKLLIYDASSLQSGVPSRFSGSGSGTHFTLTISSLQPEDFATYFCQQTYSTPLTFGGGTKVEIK = 9.64

Now for the binder whose pKd we want.
pKd for H4H10863P (antibody, human IgG4, V domains shown) VH: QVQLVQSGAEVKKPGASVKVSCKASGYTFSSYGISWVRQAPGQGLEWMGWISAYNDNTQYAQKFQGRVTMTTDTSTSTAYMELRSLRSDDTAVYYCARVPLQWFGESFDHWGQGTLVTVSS VL: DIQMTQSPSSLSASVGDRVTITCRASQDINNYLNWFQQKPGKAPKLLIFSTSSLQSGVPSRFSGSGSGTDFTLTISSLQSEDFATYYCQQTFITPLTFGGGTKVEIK ?
9.55

Origin of values: patent US20160083466A1
